Attribute: DR/DR AA
Assay: Probe fluorescence ratio response to arachidonic acid relative to ADIFAB2
Assay type: binding
Conditions: arachidonic acid; response relative to ADIFAB2
resultType: DR/DR AA

[[record]]
molecule = "126D, 72A (protein, listed as Rattus norvegicus, PEPTIDE (1)...(131) wild-type rat intestinal fatty acid binding protein) AFDGTWKVDRNENYEKFMEKMGINVVKRKLGAHDNLKLTITQEGNKFTVKESSNFRNIDVVFELGVDFAYSAADGTELTGTWTMEGNKLVGKFKRVDNGKELIAVREISGNELIQTYTYEGVEAKDIFKKE"
resulttype = "DR/DR AA"
valuemeasured = 0.44

[[record]]
molecule = "73N 72A 74F (protein, listed as Rattus norvegicus, PEPTIDE (1)...(131) wild-type rat intestinal fatty acid binding protein) AFDGTWKVDRNENYEKFMEKMGINVVKRKLGAHDNLKLTITQEGNKFTVKESSNFRNIDVVFELGVDFAYSANFGTELTGTWTMEGNKLVGKFKRVDNGKELIAVREISGNELIQTYTYEGVEAKRIFKKE"
resulttype = "DR/DR AA"
valuemeasured = 0.870

[[record]]
molecule = "49N, 72A (protein, listed as Rattus norvegicus, PEPTIDE (1)...(131) wild-type rat intestinal fatty acid binding protein) AFDGTWKVDRNENYEKFMEKMGINVVKRKLGAHDNLKLTITQEGNKFTNKESSNFRNIDVVFELGVDFAYSAADGTELTGTWTMEGNKLVGKFKRVDNGKELIAVREISGNELIQTYTYEGVEAKRIFKKE"
resulttype = "DR/DR AA"
valuemeasured = 1.255

[[record]]
molecule = "72T 73Q 74A (protein, listed as Rattus norvegicus, PEPTIDE (1)...(131) wild-type rat intestinal fatty acid binding protein) AFDGTWKVDRNENYEKFMEKMGINVVKRKLGAHDNLKLTITQEGNKFTVKESSNFRNIDVVFELGVDFAYSTQAGTELTGTWTMEGNKLVGKFKRVDNGKELIAVREISGNELIQTYTYEGVEAKRIFKKE"
resulttype = "DR/DR AA"
valuemeasured = 2.392

[[record]]
molecule = "78F 102I 72A (protein, listed as Rattus norvegicus, PEPTIDE (1)...(131) wild-type rat intestinal fatty acid binding protein) AFDGTWKVDRNENYEKFMEKMGINVVKRKLGAHDNLKLTITQEGNKFTVKESSNFRNIDVVFELGVDFAYSAADGTEFTGTWTMEGNKLVGKFKRVDNGKEIIAVREISGNELIQTYTYEGVEAKRIFKKE"
resulttype = "DR/DR AA"
valuemeasured = 2.093

[[record]]
molecule = "18I 31Y 73G 72A (protein, listed as Rattus norvegicus, PEPTIDE (1)...(131) wild-type rat intestinal fatty acid binding protein) AFDGTWKVDRNENYEKFIEKMGINVVKRKLYAHDNLKLTITQEGNKFTVKESSNFRNIDVVFELGVDFAYSAGDGTELTGTWTMEGNKLVGKFKRVDNGKELIAVREISGNELIQTYTYEGVEAKRIFKKE"
resulttype = "DR/DR AA"
valuemeasured = 1.796

[[record]]
molecule = "36H1, 72A (protein, listed as Rattus norvegicus, PEPTIDE (1)...(131) wild-type rat intestinal fatty acid binding protein) AFDGTWKVDRNENYEKFMEKMGINVVKRKLGAHDNHKLTITQEGNKFTVKESSNFRNIDVVFELGVDFAYSAADGTELTGTWTMEGNKLVGKFKRVDNGKELIAVREISGNELIQTYTYEGVEAKRIFKKE"
resulttype = "DR/DR AA"
valuemeasured = 0.76

[[record]]
molecule = "104G, 72A (protein, listed as Rattus norvegicus, PEPTIDE (1)...(131) wild-type rat intestinal fatty acid binding protein) AFDGTWKVDRNENYEKFMEKMGINVVKRKLGAHDNLKLTITQEGNKFTVKESSNFRNIDVVFELGVDFAYSAADGTELTGTWTMEGNKLVGKFKRVDNGKELIGVREISGNELIQTYTYEGVEAKRIFKKE"
resulttype = "DR/DR AA"
valuemeasured = 0.866

[[record]]
molecule = "78F, 72A (protein, listed as Rattus norvegicus, PEPTIDE (1)...(131) wild-type rat intestinal fatty acid binding protein) AFDGTWKVDRNENYEKFMEKMGINVVKRKLGAHDNLKLTITQEGNKFTVKESSNFRNIDVVFELGVDFAYSAADGTEFTGTWTMEGNKLVGKFKRVDNGKELIAVREISGNELIQTYTYEGVEAKRIFKKE"
resulttype = "DR/DR AA"
valuemeasured = 2.001

[[record]]
molecule = "14L 72G (protein, listed as Rattus norvegicus, PEPTIDE (1)...(131) wild-type rat intestinal fatty acid binding protein) AFDGTWKVDRNENLEKFMEKMGINVVKRKLGAHDNLKLTITQEGNKFTVKESSNFRNIDVVFELGVDFAYSGADGTELTGTWTMEGNKLVGKFKRVDNGKELIAVREISGNELIQTYTYEGVEAKRIFKKE"
resulttype = "DR/DR AA"
valuemeasured = 0.873

[[record]]
molecule = "14L 18L 73W 117S 72A (protein, listed as Rattus norvegicus, PEPTIDE (1)...(131) wild-type rat intestinal fatty acid binding protein) AFDGTWKVDRNENLEKFLEKMGINVVKRKLGAHDNLKLTITQEGNKFTVKESSNFRNIDVVFELGVDFAYSAWDGTELTGTWTMEGNKLVGKFKRVDNGKELIAVREISGNELIQTSTYEGVEAKRIFKKE"
resulttype = "DR/DR AA"
valuemeasured = 1.010

